Data provenance is patent US9994548B2.

Listed below: IC50 values for each entry.
- target: rat α3β4 nAChRs (Rattus norvegicus, UniProt P04757+P12392)
- Sequence (P04757 26-499): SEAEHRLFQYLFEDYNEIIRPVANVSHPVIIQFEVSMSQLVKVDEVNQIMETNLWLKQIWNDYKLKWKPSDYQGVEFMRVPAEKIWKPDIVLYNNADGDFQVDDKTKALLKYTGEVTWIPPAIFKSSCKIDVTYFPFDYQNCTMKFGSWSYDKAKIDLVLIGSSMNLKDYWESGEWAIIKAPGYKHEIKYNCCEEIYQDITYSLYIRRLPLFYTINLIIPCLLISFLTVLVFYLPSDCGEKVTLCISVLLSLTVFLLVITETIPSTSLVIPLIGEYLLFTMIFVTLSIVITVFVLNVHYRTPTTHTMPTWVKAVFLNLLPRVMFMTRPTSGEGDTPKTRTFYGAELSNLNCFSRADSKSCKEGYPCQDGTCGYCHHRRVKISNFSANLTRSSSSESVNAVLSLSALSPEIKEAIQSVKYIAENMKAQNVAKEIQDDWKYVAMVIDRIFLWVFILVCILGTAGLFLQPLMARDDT
- Sequence (P12392 21-495): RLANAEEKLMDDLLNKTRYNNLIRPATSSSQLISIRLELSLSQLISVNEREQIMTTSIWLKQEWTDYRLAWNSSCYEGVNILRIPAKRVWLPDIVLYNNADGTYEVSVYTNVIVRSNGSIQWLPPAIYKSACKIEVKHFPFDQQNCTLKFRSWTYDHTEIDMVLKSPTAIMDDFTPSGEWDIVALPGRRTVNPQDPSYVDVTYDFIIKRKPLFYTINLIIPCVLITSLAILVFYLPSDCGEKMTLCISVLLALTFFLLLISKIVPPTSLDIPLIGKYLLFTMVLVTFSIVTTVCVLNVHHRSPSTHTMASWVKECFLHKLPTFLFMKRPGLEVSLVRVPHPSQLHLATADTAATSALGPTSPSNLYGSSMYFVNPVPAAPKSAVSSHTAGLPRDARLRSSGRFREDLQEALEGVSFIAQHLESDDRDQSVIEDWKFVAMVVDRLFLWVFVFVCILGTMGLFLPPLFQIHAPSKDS
- procedure.text: 86Rb+ efflux assay in stably transfected cells
- condition.set: 10 min pre-treatment before 100 μM (−)-nicotine; read-out: IC50(10′) α3β4 (desensitization potency)

>  <molecule>
OCCCCC#Cc1cncc(OC[C@@H]2CCN2)c1 [Sazetidine-A, reference compound]

>  <reading.qualifier>
>

>  <IC50 / µM>
10

$$$$
>  <molecule>
CN1CC[C@H]1COc1cncc(C#Cc2ccccc2)c1

>  <reading.qualifier>
=

>  <IC50 / µM>
22

$$$$
>  <molecule>
C(#Cc1cncc(OCC2CCC2)c1)c1ccccc1

>  <reading.qualifier>
>

>  <IC50 / µM>
100

$$$$
>  <molecule>
CCCNCCOc1cncc(C#Cc2ccccc2)c1

>  <reading.qualifier>
=

>  <IC50 / µM>
12

$$$$

###

Entries and their Ki
- target: α7 nAChR (Rattus norvegicus)
- Sequence (Q05941 23-502): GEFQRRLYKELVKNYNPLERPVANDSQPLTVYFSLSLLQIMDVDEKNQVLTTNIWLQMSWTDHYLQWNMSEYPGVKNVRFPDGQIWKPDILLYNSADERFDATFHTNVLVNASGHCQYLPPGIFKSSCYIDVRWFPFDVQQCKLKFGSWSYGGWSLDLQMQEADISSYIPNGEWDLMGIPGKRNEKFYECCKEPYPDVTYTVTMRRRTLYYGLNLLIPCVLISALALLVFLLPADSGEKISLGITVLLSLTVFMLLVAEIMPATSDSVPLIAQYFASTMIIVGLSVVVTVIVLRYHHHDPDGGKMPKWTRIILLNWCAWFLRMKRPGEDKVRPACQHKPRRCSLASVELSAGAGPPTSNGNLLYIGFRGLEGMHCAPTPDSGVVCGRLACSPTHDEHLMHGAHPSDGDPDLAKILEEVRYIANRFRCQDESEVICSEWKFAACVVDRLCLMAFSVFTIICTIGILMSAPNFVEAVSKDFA

>  <molecule>
FC(F)(F)c1cccc(C#Cc2cncc(OC[C@@H]3CCN3)c2)c1

>  <Ki, nM>
1300

$$$$
>  <molecule>
Fc1ccc(C#Cc2cncc(OC[C@@H]3CCN3)c2)cc1

>  <Ki, nM>
2000

$$$$
>  <molecule>
Clc1cccc(C#Cc2cncc(OC[C@@H]3CCN3)c2)c1

>  <Ki, nM>
480

$$$$
>  <molecule>
OCCCCC#Cc1cncc(OC[C@@H]2CCN2)c1 [Sazetidine-A, reference compound]

>  <Ki, nM>
1600

$$$$
>  <molecule>
CCCNCCOc1cncc(C#Cc2ccccc2)c1

>  <Ki, nM>
48000

$$$$

###

- target: α3β4 nAChR (Rattus norvegicus, UniProt P04757+P12392)
- Construct: expressed in transfected cells; host or cells: HEK 293 (KXα3β4R2)
- Sequence (P04757 26-499): as the sequence (P04757 26-499) above
- Sequence (P12392 21-495): as the sequence (P12392 21-495) above
- procedure.text: [3H]-epibatidine radioligand competition binding assay
- condition.set: competition against [3H]-epibatidine, stably transfected cell membranes; read-out: Ki α3β4
Entries and their Ki

>  <molecule>
Clc1cccc(C#Cc2cncc(OC[C@@H]3CCN3)c2)c1

>  <target>
α3β4 nAChR (Rattus norvegicus, UniProt P04757+P12392)

>  <Ki [µM]>
3.4

$$$$
>  <molecule>
Fc1ccc(C#Cc2cncc(OC[C@@H]3CCN3)c2)cc1

>  <target>
α3β4 nAChR (Rattus norvegicus, UniProt P04757+P12392)

>  <Ki [µM]>
0.65

$$$$
>  <molecule>
OCCCCC#Cc1cncc(OC[C@@H]2CCN2)c1 [Sazetidine-A, reference compound]

>  <target>
α3β4 nAChR (Rattus norvegicus, UniProt P04757+P12392)

>  <Ki [µM]>
1.9

$$$$
>  <molecule>
C(#Cc1cncc(OC[C@H]2CCN2)c1)c1ccccc1

>  <target>
α3β4 nAChR (Rattus norvegicus, UniProt P04757+P12392)

>  <Ki [µM]>
1.7

$$$$
>  <molecule>
Fc1ccccc1C#Cc1cncc(OC[C@@H]2CCN2)c1

>  <target>
α3β4 nAChR (Rattus norvegicus, UniProt P04757+P12392)

>  <Ki [µM]>
0.58

$$$$
>  <molecule>
C(#Cc1cncc(OC[C@@H]2CCN2)c1)c1ccccc1

>  <target>
α3β4 nAChR (Rattus norvegicus, UniProt P04757+P12392)

>  <Ki [µM]>
0.65

$$$$
>  <molecule>
COc1cc(F)cc(C#Cc2cncc(OC[C@@H]3CCN3)c2)c1

>  <target>
α3β4 nAChR (Rattus norvegicus, UniProt P04757+P12392)

>  <Ki [µM]>
1.3

$$$$
>  <molecule>
Cc1cccc(C#Cc2cncc(OC[C@@H]3CCN3)c2)c1

>  <target>
α3β4 nAChR (Rattus norvegicus, UniProt P04757+P12392)

>  <Ki [µM]>
4

$$$$
>  <molecule>
FC(F)(F)c1cccc(C#Cc2cncc(OC[C@@H]3CCN3)c2)c1

>  <target>
α3β4 nAChR (Rattus norvegicus, UniProt P04757+P12392)

>  <Ki [µM]>
1.4

$$$$
>  <molecule>
Fc1cccc(C#Cc2cncc(OC[C@@H]3CCN3)c2)c1

>  <target>
α3β4 nAChR (Rattus norvegicus, UniProt P04757+P12392)

>  <Ki [µM]>
0.52

$$$$
>  <molecule>
CN(C)c1cc(F)cc(C#Cc2cncc(OC[C@@H]3CCN3)c2)c1

>  <target>
α3β4 nAChR (Rattus norvegicus, UniProt P04757+P12392)

>  <Ki [µM]>
1

$$$$
>  <molecule>
CN1CC[C@H]1COc1cncc(C#Cc2ccccc2)c1

>  <target>
α3β4 nAChR (Rattus norvegicus, UniProt P04757+P12392)

>  <Ki [µM]>
40

$$$$
>  <molecule>
CCCNCCOc1cncc(C#Cc2ccccc2)c1

>  <target>
α3β4 nAChR (Rattus norvegicus, UniProt P04757+P12392)

>  <Ki [µM]>
850

$$$$
>  <molecule>
Cc1cc(F)cc(C#Cc2cncc(OC[C@@H]3CCN3)c2)c1

>  <target>
α3β4 nAChR (Rattus norvegicus, UniProt P04757+P12392)

>  <Ki [µM]>
1.1

$$$$
>  <molecule>
C(#Cc1cncc(OCC2CCC2)c1)c1ccccc1

>  <target>
α3β4 nAChR (Rattus norvegicus, UniProt P04757+P12392)

>  <Ki [µM]>
1300

$$$$
